// data source = patent US12291516B2

Exercise: for every item that follows, state its recorded pIC50.
target: BTK (Homo sapiens (Human), UniProt Q06187); experiment: In house ELISA kinase inhibition assay, BTK; type: biochemical; conditions: footnote b: from in house procedure (ELISA)
Sequence (Q06187 whole entry): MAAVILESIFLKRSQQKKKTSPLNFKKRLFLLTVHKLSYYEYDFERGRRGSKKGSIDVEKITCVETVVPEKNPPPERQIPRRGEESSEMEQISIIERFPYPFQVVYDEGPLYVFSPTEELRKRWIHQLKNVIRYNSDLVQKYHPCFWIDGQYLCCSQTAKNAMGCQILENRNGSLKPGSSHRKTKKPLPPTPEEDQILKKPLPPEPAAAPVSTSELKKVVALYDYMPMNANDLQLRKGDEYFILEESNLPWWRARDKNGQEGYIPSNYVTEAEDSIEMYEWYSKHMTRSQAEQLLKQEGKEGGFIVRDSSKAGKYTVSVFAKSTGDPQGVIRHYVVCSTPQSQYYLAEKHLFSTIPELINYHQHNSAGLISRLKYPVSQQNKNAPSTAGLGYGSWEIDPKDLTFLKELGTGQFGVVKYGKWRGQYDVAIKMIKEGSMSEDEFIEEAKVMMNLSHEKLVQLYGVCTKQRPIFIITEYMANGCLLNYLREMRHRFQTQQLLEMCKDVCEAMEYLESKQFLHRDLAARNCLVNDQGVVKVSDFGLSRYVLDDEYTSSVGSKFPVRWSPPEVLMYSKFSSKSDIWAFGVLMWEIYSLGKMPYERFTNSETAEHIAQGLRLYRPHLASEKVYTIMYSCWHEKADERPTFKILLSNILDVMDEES
pIC50 is defined as minus the log10 of a concentration measured in mol/L.

Problem: Look at this compound and give its reported pIC50. `CC#CC(=O)N1CCCC[C@H]1c1nc(-c2ccc(C(=O)Nc3cc(Cl)ccn3)cc2)c(C(N)=O)n1N`
Solution: 7.71

Problem: Entry `CC#CC(=O)N1CCCC[C@H]1c1nc(-c2ccc(C(=O)Nc3cc(C#N)ccn3)cc2)c(C(N)=O)n1N` : reported pIC50 = ?
Solution: 7.34

Problem: Please look up its pIC50: `C=CC(=O)N1CCCC[C@H]1c1nc(-c2ccc(C(=O)Nc3cc(-c4ccc(C#N)cc4)ccn3)cc2)c(C(N)=O)n1N`
Solution: 7.97

Problem: Please report the recorded pIC50 for `CC#CC(=O)N1CCCC[C@H]1c1nc(-c2ccc(C(=O)Nc3ccccn3)cc2)c(C(N)=O)n1N` .
Solution: 7.00

Problem: // returns reported pIC50 for input `C#CC(=O)N1CCCC[C@H]1c1nc(-c2ccc(C(=O)Nc3cc(C)ccn3)cc2)c(C(N)=O)n1N`
Solution: 7.72

Problem: Consider the compound `CC#CC(=O)N1CCC[C@H]1c1nc(-c2ccc(C(=O)Nc3cc(F)ccn3)cc2)c(C(N)=O)n1N` and give its measured pIC50.
Solution: 5.78

Problem: pIC50 for `C=CC(=O)N1CC2(CC(c3nc(-c4ccc(C(=O)Nc5cc(CC)ccn5)cc4)c(C(N)=O)n3N)C2)C1` ?
Solution: 7.07

Problem: Which pIC50 value is on record for `COc1ccnc(NC(=O)c2ccc(-c3nc([C@@H]4CCCCN4C(=O)/C=C/C(F)(F)F)n(N)c3C(N)=O)cc2)c1` ?
Solution: 7.15

Problem: Which pIC50 value is on record for `C=C(F)C(=O)N1CCCC[C@H]1c1nc(-c2ccc(C(=O)Nc3cc(C)ccn3)cc2)c(C(N)=O)n1N` ?
Solution: 5.89

Problem: Record request: pIC50 value, item `C#CC(=O)N1CCCC[C@H]1c1nc(-c2ccc(C(=O)Nc3cc(OC)ccn3)cc2)c(C(N)=O)n1N`
Solution: 8.04

Problem: Entry `CC#CC(=O)N1CCCC[C@H]1c1nc(-c2ccc(C(=O)Nc3cc(-c4ccc(C#N)cc4)ccn3)cc2)c(C(N)=O)n1N` has what pIC50?
Solution: 7.64

Problem: I have this compound here, `CC#CC(=O)N1CCC[C@H]1c1nc(-c2ccc(C(=O)Nc3cc(C)ccn3)cc2)c(C(N)=O)n1N` , and I need its recorded pIC50.
Solution: 5.51

Problem: Need pIC50 of `C=CC(=O)N1CCCC[C@H]1c1nc(-c2ccc(C(=O)Nc3cc(C)c(F)cn3)cc2)c(C(N)=O)n1N` , thanks.
Solution: 7.35

Problem: Please give the measured pIC50 for this compound: `CC#CC(=O)N1CCC[C@H]1c1nc(-c2ccc(C(=O)Nc3cc(CC)ccn3)cc2)c(C(N)=O)n1N`
Solution: 5.98
